Taken from the supplement of paper PMC12592484.

Kindly state drug sensitivity score for each of the entries shown.
Test system: CAF#4 (primary prostate cancer-associated fibroblasts of iCAF-like type)
PROTOCOL SUMMARY: drug sensitivity score (DSS2, normalised partial AUC of dose-response, 72 h CellTiter-Glo viability) (DSS (dimensionless)); higher = more sensitive (stronger growth inhibition / cytotoxicity); extreme values may be limits of the assay

MOLECULE: N#CC(c1ccnc(OCc2ccc(CN3CCOCC3)cc2)n1)c1nc2ccccc2s1 (centres undefined) [Bentamapimod] (tested concentration range 1-10000 nM)
OBSERVED: 3.4
--
MOLECULE: C1=N/C2=N/c3ccc(OCCN4CCCC4)c(c3)COC/C=C/COCc3cccc(c3)C(=C1)N2 [Pacritinib] (tested concentration range 1-10000 nM)
OBSERVED: 6.1
--
MOLECULE: COc1cc2c(NC3CCN(C(C)C)CC3)nc(N3CCC(F)(F)CC3)nc2cc1OCCCN1CCCC1 [UNC0642] (tested concentration range 1-10000 nM)
OBSERVED: 0

Now let's try a different one.
I'm curious: which drug sensitivity score was measured for CN1CCN(C2CCC(n3cc(-c4ccc(Oc5ccccc5)cc4)c4c(N)ncnc43)CC2)CC1 (centres undefined) (tested concentration range 1-10000 nM) tested on CAF#4? 13.6
